Test system: UACC-62
protocol: NCI tumour cell line growth inhibition, 48 h
The source made the active and inactive calls. No stated cut-off is given here; in the data, active = GI50 up to about 1.1 µM and inactive = higher.
Allowed answers: T (active), F (inactive)

Example results:
| compound | label.class |
| --- | --- |
| C=CCC(O[Si](C)(C)C(C)(C)C)c1cc(O[Si](C)(C)C(C)(C)C)ccc1OC (configuration not stated) | F |
| CCN1C(Cl)=NS(=O)(=O)c2ccccc21 | F |
| CC[N+](C)(CC)Cc1ccccc1[N+](=O)[O-] | F |

// query Kindly provide the recorded test outcome for the following compound: `O=C(O)/C(Cc1ccnc2ccccc12)=N\O`
// result F

// query Another compound: `COc1cccc(-c2cc(O)c3cc(OC)ccc3n2)c1`
// result T

// query Another compound: `CN(C)CCNC(=O)c1cc(Cl)cc2ccc(-c3ccccc3)nc12`
// result F

// query Another compound: `COI1NC(=O)c2ccccc21`
// result F

// query Another compound: `Cc1ccc(/N=C2N=C(Cl)/C(=C\c3ccccc3)N\2)cc1`
// result F

// query Another compound: `O=c1cc(-c2cc(O)c(O)c(-c3c(O)cc4oc(-c5ccc(O)c(O)c5)cc(=O)c4c3O)c2)oc2cc(O)cc(O)c12`
// result F
